- System: A204
- Test Details: relative viability vs DMSO control (72 h) (fraction); higher = more viable cells
- Test Settings: 3.333 µM
Please go through the items and note down their relative viability.
One number for each entry.

- Smiles Repr: "CC1(C)CC=C(c2nc(C3CC(C)(C)OC(C)(C)C3)ccc2NC(=O)c2nc(C#N)c[nH]2)CC1"
  relative viability: 1.07
- Smiles Repr: "Cc1ccc(Nc2nccc(N(C)c3ccc4c(C)n(C)nc4c3)n2)cc1S(N)(=O)=O"
  relative viability: 0.294

Incoming: Short answer please: relative viability, A204, entry "C[C@H](Nc1ncnc2nc[nH]c12)c1cc2cccc(Cl)c2c(=O)n1-c1ccccc1"
Outgoing: 0.555

====

Please go through the items and note down their relative viability.
- Tested on: KHOS-NP
- Test Details: relative viability vs DMSO control (72 h) (fraction); higher = more viable cells
- Test Settings: 3.333 µM
Answers are plain numbers.

Consider the worked cases shown below.
- Smiles Repr: "Cc1cc2c(F)c(Oc3ncnn4cc(OC[C@@H](C)O)c(C)c34)ccc2[nH]1"
  Test System: "KHOS-NP"
  Observed Value: 1.07
- Smiles Repr: "CC#CC(=O)N1CCC[C@H]1c1nc(-c2ccc(C(=O)Nc3ccccn3)cc2)c2c(N)nccn12"
  Test System: "KHOS-NP"
  Observed Value: 1.08
- Smiles Repr: "CN1CC[C@@H](NC(=O)Nc2ccc(C#N)cc2)C[C@@H]1c1nc2ccccc2[nH]1"
  Test System: "KHOS-NP"
  Observed Value: 1.08
- Smiles Repr: "COC(=O)N[C@@H](C)CNc1nccc(-c2cn(C(C)C)nc2-c2cc(Cl)cc(NS(C)(=O)=O)c2F)n1"
  Test System: "KHOS-NP"
  Observed Value: 0.528
- Smiles Repr: "O=C(Nc1ccc(OC(F)(F)Cl)cc1)c1cnc(N2CC[C@@H](O)C2)c(-c2cc[nH]n2)c1"
  Test System: "KHOS-NP"
  Observed Value: 0.901
- Smiles Repr: "COc1cc(OC)c(/C=C/S(=O)(=O)Cc2ccc(OC)c(NCC(=O)O)c2)c(OC)c1"
  Test System: "KHOS-NP"
  Observed Value: 0.414
- Smiles Repr: "CC(C)(O)CNc1nc(Nc2ccnc(C(F)(F)F)c2)nc(-c2cccc(C(F)(F)F)n2)n1"
  Test System: "KHOS-NP"
  Observed Value: 1.06
- Smiles Repr: "CC(C)NC[C@@H](C(=O)N1CCN(c2ncnc3c2[C@H](C)C[C@H]3O)CC1)c1ccc(Cl)cc1"
  Test System: "KHOS-NP"
  Observed Value: 0.994

From here, focus on the item given below.
Incoming: Fill blank: measured relative viability of the molecule "COCCNc1cc(NC(=O)N2CCCc3cc(CN4CCN(C)CC4=O)c(C=O)nc32)ncc1C#N" is ____.
Outgoing: 1.04

====

- Test system: SYO-1
- Test Details: relative viability vs DMSO control (72 h) (fraction); higher = more viable cells
- Test Settings: 0.00457 µM
Quantity Name: relative viability
Numbers only.

Consider the worked cases shown below.
- Compound: "CO[C@H]1C[C@@H]2CC[C@@H](C)[C@@](O)(O2)C(=O)C(=O)N2CCCC[C@H]2C(=O)O[C@H]([C@H](C)C[C@@H]2CC[C@@H](OCCO)[C@H](OC)C2)CC(=O)[C@H](C)/C=C(\\C)[C@@H](O)[C@@H](OC)C(=O)[C@H](C)C[C@H](C)/C=C/C=C/C=C/1C"
  Test System: "SYO-1"
  relative viability: 0.84
- Compound: "CC(C)(O)CNc1nc(Nc2ccnc(C(F)(F)F)c2)nc(-c2cccc(C(F)(F)F)n2)n1"
  Test System: "SYO-1"
  relative viability: 0.982
- Compound: "Cn1cc(C2=C(c3cn(C4CCN(Cc5ccccn5)CC4)c4ccccc34)C(=O)NC2=O)c2ccccc21"
  Test System: "SYO-1"
  relative viability: 0.998
- Compound: "COC(=O)[C@@]1(O)C[C@H]2O[C@]1(C)n1c3ccccc3c3c4c(c5c6ccccc6n2c5c31)C(=O)NC4 [K-252a]"
  Test System: "SYO-1"
  relative viability: 0.965
- Compound: "O=C(Nc1nc2cccc(-c3ccc(CN4CCS(=O)(=O)CC4)cc3)n2n1)C1CC1"
  Test System: "SYO-1"
  relative viability: 0.97

From here, focus on the item given below.
Incoming: Fill blank: measured relative viability of the compound "CCc1cnn2c(NCc3ccc[n+]([O-])c3)cc(N3CCCC[C@H]3CCO)nc12" is ____.
Outgoing: 0.908
